# Test system: SARS-CoV-2
# testProtocol: microbe, parasite or virus in culture
# Assay type: cell-based, SARS-CoV-2 (nCoV/Washington/1/2020)
# runParameters: Severe acute respiratory syndrome coronavirus 2; read-out: EC50 SARS2
Where a name gives a salt, the structure may show the parent alone.
Would you mind classing the entries by EC50? Ranges: lower (below 2 µM), middle (2 µM to below 4 µM), upper (4 µM or more)

compound=CCC(CC)COC(=O)[C@H](C)N[P@](=O)(OC[C@H]1O[C@@](C#N)(c2ccc3c(N)ncnn23)[C@H](O)[C@@H]1O)Oc1ccccc1 assignedcategory=lower
compound="O.O=C(c1ccc(OCCN2CCCCC2)cc1)c1c(-c2ccc(O)cc2)sc2cc(O)ccc12 [Raloxifene HCl]" assignedcategory=middle
compound=COC(=O)N[C@H](C(=O)N1CCC[C@H]1c1ncc(-c2ccc3c(c2)O[C@@H](c2ccccc2)n2c-3cc3cc(-c4cnc([C@@H]5CCCN5C(=O)[C@@H](NC(=O)OC)C(C)C)[nH]4)ccc32)[nH]1)C(C)C assignedcategory=upper
compound=COc1ccc2cc1Oc1ccc(cc1)C[C@H]1c3c(cc4c(c3Oc3cc5c(cc3OC)CCN(C)[C@@H]5C2)OCO4)CCN1C assignedcategory=lower
compound="CN1CCCC(n2nc(Cc3ccc(Cl)cc3)c3ccccc3c2=O)CC1.O (stereo not drawn) [Azelastine HCl]" assignedcategory=middle
compound="CCCNCC(O)COc1ccccc1C(=O)CCc1ccccc1.O (stereo not drawn) [Propafenone HCl]" assignedcategory=middle
compound="CC(CN(C)C)CN1c2ccccc2CCc2ccccc21 (stereo not drawn) [Trimipramine maleate]" assignedcategory=lower
compound="N#Cc1ccc2[nH]cc(CCCCN3CCN(c4ccc5oc(C(N)=O)cc5c4)CC3)c2c1.O [Vilazodone HCl]" assignedcategory=upper
compound="CCN(CCCCOC(=O)c1ccc(OC)c(OC)c1)C(C)Cc1ccc(OC)cc1.O (stereo not drawn) [Mebeverine Hydrochloride]" assignedcategory=upper
compound="O=C(O)CCC(=O)O.O=C(O[C@H]1CN2CCC1CC2)N1CCc2ccccc2[C@@H]1c1ccccc1 [Solifenacin succinate]" assignedcategory=middle
compound=COc1cc2c(Oc3ccc4[nH]c(C)cc4c3F)ncnc2cc1OCCCN1CCCC1 assignedcategory=middle
compound=CCCCOC(=O)c1ccc(O)cc1 assignedcategory=upper
compound=CCCCOC(=O)c1ccc(N)cc1 assignedcategory=upper
compound="CCN(CC)CCOCCOC(=O)C1(c2ccccc2)CCCC1.O=C(O)CC(O)(CC(=O)O)C(=O)O [Pentoxyverine Citrate]" assignedcategory=middle

====

Listed here: items and their measured toxic_2.
# Tested on: A549-mRuby cells
# testProtocol: Drug screening: effect on cell growth (cell number day 4 / day 0)
# runParameters: 10 μM drug, repeat #2
Counter-ions that a name gives are not always drawn.
quantity: toxic_2

molecule=COc1cc2c(cc1OC)CN(CCc1ccc(NC(=O)c3cccc4c(=O)c5cccc(OC)c5[nH]c34)cc1)CC2 recordedmeasurement=0
molecule=NC(=O)C(c1ccccc1)(c1ccccc1)[C@@H]1CCN(CCc2ccc3c(c2)CCO3)C1 recordedmeasurement=0
molecule="CCN(CC)CCOCCOC(=O)C1(c2ccccc2)CCCC1.O=C(O)CC(O)(CC(=O)O)C(=O)O [Pentoxyverine Citrate]" recordedmeasurement=0
molecule="OCc1cc(C(O)CNCCCCCCOCCCCc2ccccc2)ccc1O (stereo not shown) [Salmeterol Xinafoate]" recordedmeasurement=0
molecule="CC(N)C12CC3CC(CC(C3)C1)C2 (stereo not shown) [Rimantadine Hydrochloride]" recordedmeasurement=0
molecule="COCCCC/C(=N\\OCCN)c1ccc(C(F)(F)F)cc1 [Fluvoxamine maleate]" recordedmeasurement=0
molecule="CCCC1O[C@@H]2C[C@H]3[C@@H]4CCC5=CC(=O)C=C[C@]5(C)[C@H]4[C@@H](O)C[C@]3(C)[C@]2(C(=O)CO)O1 (stereo partly shown) [Budesonide]" recordedmeasurement=0
